Target: KCNQ2/3 channels (Homo sapiens, UniProt O43525+O43526)
Construct: expressed in transfected cells; host or cells: CHO-K1 cells, kept under selection antibiotics
Experiment: Fluorescence assay using a voltage sensitive dye (fluorimetry)
Format: cell-based
Conditions: 10 μM; relative to retigabine = 100%; CHO-K1 cells expressing KCNQ2/3; read-out: Fluorimetry % efficacy @ 10 μM (retigabine = 100%)
metric-name: Emax at 10 µM

Sample answers from the record:
Cc1cc(C)cc(C(C)Nc2noc3c(C(F)(F)F)nccc23)c1 (stereo not shown) = 39%
FC(F)(F)Sc1ccc(CNc2noc3nc4ccccc4cc23)cc1 = 38%

compound FC(F)(F)Sc1ccc(CNc2noc3ccnc(Cl)c23)cc1 , Emax at 10 µM observed: 19%

compound Cc1cc(C)cc(C(C)Nc2noc3ccncc23)c1 (stereo not shown) , Emax at 10 µM observed: 15%

* * *

Target: KCNQ2/3 channels (Homo sapiens, UniProt O43525+O43526)
Test: Fluorescence assay using a voltage sensitive dye (fluorimetry)
Conditions: CHO-K1 cells expressing KCNQ2/3
Entries and their measured EC50 follow.

Sample answers from the record:
FC(F)(F)Sc1ccc(CNc2noc3ncccc23)cc1 = 1690 nM
CC(Nc1noc2ccncc12)c1ccc(SC(F)(F)F)cc1 (stereo not shown) = 899 nM
FC(F)(F)Sc1ccc(CNc2noc3nc4ccccc4cc23)cc1 = 411 nM

Now for a further compound.
compound Cc1cc(C)cc(C(C)Nc2noc3nc(C)ccc23)c1 (stereo not shown) , EC50 observed: 231 nM

* * *

Biological target: KCNQ2/3 channels (Homo sapiens, UniProt O43525+O43526)
Construct: expressed in transfected cells; host or cells: CHO-K1 cells, kept under selection antibiotics
Test: Fluorescence assay using a voltage sensitive dye (fluorimetry)
Format: cell-based
Conditions: 10 μM; relative to retigabine = 100%; CHO-K1 cells expressing KCNQ2/3; read-out: Fluorimetry % efficacy @ 10 μM (retigabine = 100%)
metric-name: Emax at 10 µM (%)
Answer format: numeric, % implied, no suffix.

Sample answers from the record:
CC(Nc1noc2cccnc12)c1ccc(SC(F)(F)F)cc1 (centres unmarked) = 50
CC(Nc1noc2ccncc12)c1ccc(SC(F)(F)F)cc1 (centres unmarked) = 49
Cc1ccc2c(NCc3ccc(SC(F)(F)F)cc3)noc2n1 = 49
CC(Nc1noc2cnccc12)c1ccc(C(F)(F)F)cc1 (centres unmarked) = 78

molecule CC(Nc1noc2ncccc12)c1ccc(C(F)(F)F)cc1 (centres unmarked) , Emax at 10 µM observed: 43

* * *

Biological target: KCNQ2/3 channels (Homo sapiens, UniProt O43525+O43526)
Construct: expressed in transfected cells; host or cells: CHO-K1 cells, kept under selection antibiotics
Assay: Fluorescence assay using a voltage sensitive dye (fluorimetry)
Format: cell-based
Settings: 10 μM; relative to retigabine = 100%; CHO-K1 cells expressing KCNQ2/3; read-out: Fluorimetry % efficacy @ 10 μM (retigabine = 100%)
Entries and their measured Emax at 10 µM follow.
Answer format: numeric, % implied, no suffix.

FC(F)(F)Sc1ccc(CNc2noc3cccnc23)cc1 [Exemplary compound 9] = 86
Cc1cc(C)cc(CNc2noc3ncccc23)c1 [Exemplary compound 3] = 34
Cc1cc(C)cc(C(C)Nc2noc3nc(C(F)(F)F)ccc23)c1 (centres unmarked) [Exemplary compound 18] = 43
Cc1cc(C)cc(C(C)Nc2noc3ncccc23)c1 (centres unmarked) [Exemplary compound 4] = 65

Now for a further molecule.
molecule FC(F)(F)Sc1ccc(CNc2noc3ccncc23)cc1 [Exemplary compound 12] , Emax at 10 µM observed: 39
